target: T1, Cynomolgus Factor P (cynomolgus); test: Biacore SPR, captured Factor P
T1 construct: Purified from cynomolgus serum for SET/Biacore; Factor P of cynomolgus serum in the functional assays; also called Cyno Factor P; cyno FP
Recorded koff for the following binders
Express it in s⁻¹; write the number only.

Illustrative cases are given below, each with its answer.
[
  {
    "binder": "NVS962 (Fab, V domains shown, also called Fab NVS962) VH: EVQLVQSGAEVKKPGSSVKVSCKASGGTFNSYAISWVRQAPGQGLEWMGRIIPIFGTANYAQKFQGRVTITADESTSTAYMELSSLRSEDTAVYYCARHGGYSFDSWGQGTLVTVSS VL: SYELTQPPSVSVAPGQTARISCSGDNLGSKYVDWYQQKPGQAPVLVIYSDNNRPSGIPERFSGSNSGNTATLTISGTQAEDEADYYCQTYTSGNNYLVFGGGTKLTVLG",
    "unit-of-measure": "s⁻¹",
    "koff": 0.000279
  },
  {
    "binder": "NVS966 (Fab, V domains shown, Disulfide-bridged Fab; also called Fab NVS966) VH: EVQLVQSGAEVKKPGESLKISCKGSGYSFTNYWIGWVRQMPGKGLEWMGRIDPGESLTNYAPSFQGQVTISADKSISTAYLQWSSLKASDTAMYYCARTGVADVDMPFAHWGQGTLVTVSS VL: SYVLTQPPSVSVAPGKTARISCSGDNLGSYYVNWYQQKPGQAPVLVIYGDSERPSGIPERFSGSNSGNTATLTISRAQAGDEADYYCGSWDITSFVFGGGTKLTVLG",
    "unit-of-measure": "s⁻¹",
    "koff": 0.0002
  },
  {
    "binder": "NVS963 (Fab, V domains shown, Disulfide-bridged Fab; also called Fab NVS963) VH: EVQLVQSGAEVKKPGSSVKVSCKASGGTFSSYAISWVRQAPGQGLEWMGPINPYYGDAIYAQKFQGRVTITADESTSTAYMELSSLRSEDTAVYYCARYYSDYMDYWGQGTLVTVSS VL: QSVLTQPPSVSGAPGQRVTISCTGSSSNIGAGYDVHWYQQLPGTAPKLLIHDNSHRPSGVPDRFSGSKSGTSASLAITGLQSEDEADYYCASYDESAHSVFGGGTKLTVLG",
    "unit-of-measure": "s⁻¹",
    "koff": 0.0002
  },
  {
    "binder": "NVS965-T (Fab, V domains shown, NVS965 with heavy chain N30 replaced with threonine) VH: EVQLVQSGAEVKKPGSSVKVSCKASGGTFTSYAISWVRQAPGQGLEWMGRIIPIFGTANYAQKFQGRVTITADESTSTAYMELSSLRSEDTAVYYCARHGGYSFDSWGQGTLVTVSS VL: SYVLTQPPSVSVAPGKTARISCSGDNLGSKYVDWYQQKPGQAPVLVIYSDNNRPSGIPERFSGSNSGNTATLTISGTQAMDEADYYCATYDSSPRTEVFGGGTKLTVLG",
    "unit-of-measure": "s⁻¹",
    "koff": 0.000151
  },
  {
    "binder": "NVS964 (Fab, V domains shown, Disulfide-bridged Fab; also called Fab NVS964) VH: EVQLVQSGAEVKKPGASVKVSCKASGYTFTSHYMHWVRQAPGQGLEWMGKINADLGDTNYAQKFQGRVTMTRDTSISTAYMELSSLRSEDTAVYYCARDGIEHGGHYYWGYLFDIWGQGTLVTVSS VL: SYELTQPPSVSVAPGQTARISCSGDSIREYYVHWYQQKPGQAPVLVIGDDTNRPSGIPERFSGSNSGNTATLTISGTQAEDEADYYCAAWDFSPAIVFGGGTKLTVLG",
    "unit-of-measure": "s⁻¹",
    "koff": 0.0002
  },
  {
    "binder": "NVS962-G (Fab, V domains shown, NVS962 with heavy chain N30 replaced with glycine) VH: EVQLVQSGAEVKKPGSSVKVSCKASGGTFGSYAISWVRQAPGQGLEWMGRIIPIFGTANYAQKFQGRVTITADESTSTAYMELSSLRSEDTAVYYCARHGGYSFDSWGQGTLVTVSS VL: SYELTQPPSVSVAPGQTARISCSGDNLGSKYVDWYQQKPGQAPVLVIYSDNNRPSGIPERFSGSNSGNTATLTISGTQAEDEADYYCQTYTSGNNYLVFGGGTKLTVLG",
    "unit-of-measure": "s⁻¹",
    "koff": 0.000339
  }
]

Could you now look at the following binder, please?
Lab note: measured koff of NVS962-T (Fab, V domains shown, NVS962 with heavy chain N30 replaced with threonine; also called NSV962-T) VH: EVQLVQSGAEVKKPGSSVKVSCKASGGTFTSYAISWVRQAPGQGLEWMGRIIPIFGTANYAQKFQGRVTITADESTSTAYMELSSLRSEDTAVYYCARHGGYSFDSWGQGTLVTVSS VL: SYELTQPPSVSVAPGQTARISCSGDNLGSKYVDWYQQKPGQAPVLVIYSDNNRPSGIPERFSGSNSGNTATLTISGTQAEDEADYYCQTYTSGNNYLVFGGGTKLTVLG was 8.56e-05
